# protocol-description: Tmax in Sprague-Dawley rat at 1 mg/kg, po
# Type: ADME, organism-based
# Parameters: dose 1 mg/kg, route oral
# recorded-conditions: in vivo
Would you mind telling me the reported Tmax of each entry?
Could you kindly put the unit after your number?

smi | Tmax
Cc1nc2c(cnn2-c2cccc(S(N)(=O)=O)c2)c(=O)n1-c1ccc(Cl)cc1 | 1.2 h

Next:
Tmax in this record for Cc1nc2c(cnn2-c2ccccc2)c(=O)n1-c1ccc(Br)cc1 : 1.3 h

----------
# protocol-description: Half life in Sprague-Dawley rat at 1 mg/kg, ip
# Assay type: ADME, organism-based
# Parameters: dose 1 mg/kg, route intraperitoneal
# recorded-conditions: Sprague-Dawley, in vivo
measurement-kind: half-life (h)
Answers are plain numbers, in h.

Cc1nc2c(cnn2-c2cccc(S(N)(=O)=O)c2)c(=O)n1-c1ccc(Cl)cc1 yielded half-life of 1.7

----------
# protocol-description: Half life in Sprague-Dawley rat at 1 mg/kg, po
# Format: ADME, organism-based
# Set-up: dose 1 mg/kg, route oral
# recorded-conditions: in vivo
What half-life was measured for each of the following?
One number for each entry, in h.

smi | measurement-kind | result-unit | experimental-result
Cc1nc2c(cnn2-c2ccccc2)c(=O)n1-c1ccc(Br)cc1 | half-life | h | 1.3

Moving on to the next compound.
In plain terms, Cc1nc2c(cnn2-c2cccc(S(N)(=O)=O)c2)c(=O)n1-c1ccc(Cl)cc1 has a documented half-life of 1.2

----------
# protocol-description: AUC in Sprague-Dawley rat at 1 mg/kg, ip
# Type: ADME, organism-based, Plasma
# Design: dose 1 mg/kg, route intraperitoneal
# recorded-conditions: Sprague-Dawley, plasma
measurement-kind: AUC (ng·h/mL)
Answers are plain numbers, in ng·h/mL.

Lab book: AUC of Cc1nc2c(cnn2-c2cccc(S(N)(=O)=O)c2)c(=O)n1-c1ccc(Cl)cc1 noted as 7790

----------
# protocol-description: Oral bioavailability in Sprague-Dawley rat at 1 mg/kg
# Format: ADME, organism-based
# recorded-conditions: in vivo
measurement-kind: bioavailability
Write the numeric value and append its unit.

Lab note: Cc1nc2c(cnn2-c2ccccc2)c(=O)n1-c1ccc(Br)cc1 gave bioavailability of 8%

----------
# protocol-description: Aqueous solubility of the compound
# Format: physicochemical
# recorded-conditions: buffer
Quick rule: solubility of at least 20 µM means Fulfilled, below that means Not fulfilled.

Worked cases, answers included:
smi | classification
Cc1nc2c(cnn2-c2ccccc2)c(=O)n1N1CCCCC1 | Not fulfilled
Cc1nc2c(cnn2-c2ccccc2)c(=O)n1-c1ccc(Cl)cc1 | Not fulfilled

[in] Does the reported solubility for Cc1nc2c(cnn2-c2cccc(S(N)(=O)=O)c2)c(=O)n1-c1ccc(Cl)cc1 fall at or above the 20 µM mark?
[out] Fulfilled

[in] solubility >= 20 µM for Cc1nc2c(cnn2-c2ccccc2)c(=O)n1-c1ccc(Br)cc1 ?
[out] Not fulfilled

[in] Confirm if solubility reported for the molecule Cc1nc2c(cnn2-c2cccnc2)c(=O)n1-c1ccc(Cl)cc1 is 20 µM or above.
[out] Fulfilled

[in] Quick check, solubility >= 20 µM? Cc1nc2c(cnn2-c2cccc(Cl)c2)c(=O)n1-c1ccc(Cl)cc1
[out] Not fulfilled

[in] Could you tell me if the measured solubility of Cc1cccc(-n2ncc3c(=O)n(-c4ccc(Cl)cc4)c(C)nc32)c1 reaches 20 µM or more?
[out] Fulfilled

[in] Is solubility for Cc1nc2c(cnn2-c2ccccc2)c(=O)n1-c1ccc(Cl)c(F)c1 at or above 20 µM?
[out] Not fulfilled

----------
Record form. Attribute: IC50. Fill in for each entry.
# target-or-system: Metabotropic glutamate receptor 1 (Homo sapiens, UniProt Q13255)
# Sequence (Q13255 whole entry): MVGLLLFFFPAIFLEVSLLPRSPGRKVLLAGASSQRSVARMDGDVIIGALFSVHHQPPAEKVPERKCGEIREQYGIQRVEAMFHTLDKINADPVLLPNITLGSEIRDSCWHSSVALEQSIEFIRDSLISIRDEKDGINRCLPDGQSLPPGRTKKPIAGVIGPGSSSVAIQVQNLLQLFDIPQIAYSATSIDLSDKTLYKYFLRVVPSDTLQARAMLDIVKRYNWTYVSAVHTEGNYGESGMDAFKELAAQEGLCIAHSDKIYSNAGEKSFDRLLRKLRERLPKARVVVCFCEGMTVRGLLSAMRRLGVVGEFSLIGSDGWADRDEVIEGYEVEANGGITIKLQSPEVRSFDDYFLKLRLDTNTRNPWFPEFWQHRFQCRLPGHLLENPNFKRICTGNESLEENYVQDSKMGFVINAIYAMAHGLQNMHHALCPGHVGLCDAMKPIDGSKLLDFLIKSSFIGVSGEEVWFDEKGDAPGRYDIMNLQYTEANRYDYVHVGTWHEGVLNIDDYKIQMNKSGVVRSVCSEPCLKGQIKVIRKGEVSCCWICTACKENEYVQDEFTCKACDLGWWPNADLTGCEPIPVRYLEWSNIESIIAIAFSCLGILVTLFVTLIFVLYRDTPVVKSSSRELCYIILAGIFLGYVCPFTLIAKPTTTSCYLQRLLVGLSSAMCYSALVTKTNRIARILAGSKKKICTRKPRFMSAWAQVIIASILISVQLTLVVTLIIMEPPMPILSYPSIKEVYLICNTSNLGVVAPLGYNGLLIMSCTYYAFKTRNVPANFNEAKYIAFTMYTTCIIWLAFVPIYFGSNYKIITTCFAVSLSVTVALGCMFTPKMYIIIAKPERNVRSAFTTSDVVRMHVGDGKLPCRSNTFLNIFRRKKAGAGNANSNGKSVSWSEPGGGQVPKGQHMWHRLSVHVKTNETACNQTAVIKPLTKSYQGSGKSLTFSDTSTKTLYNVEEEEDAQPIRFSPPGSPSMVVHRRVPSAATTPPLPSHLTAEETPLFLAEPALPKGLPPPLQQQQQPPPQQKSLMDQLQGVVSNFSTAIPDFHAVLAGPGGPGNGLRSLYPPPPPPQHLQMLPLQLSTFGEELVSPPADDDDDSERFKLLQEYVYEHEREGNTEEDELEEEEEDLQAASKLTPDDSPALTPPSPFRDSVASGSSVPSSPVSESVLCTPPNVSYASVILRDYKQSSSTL
# protocol-description: Antagonist activity at human mGluR1 receptor expressed in […] cells assessed as inhibition of glutamate-induced calcium flux by FLIPR assay
One number for each entry, in nM.

smi | experimental-result
Cc1nc2c(cnn2-c2ccc(Cl)cc2)c(=O)n1-c1ccc(Cl)cc1 | 1100
Cc1nc2c(cnn2-c2ccccc2)c(=O)n1-c1ccc(Cl)c(F)c1 | 800
Cc1nc2c(cnn2-c2cccc(Cl)c2)c(=O)n1-c1ccc(Cl)cc1 | 220
Cc1nc2c(cnn2-c2cccc(S(N)(=O)=O)c2)c(=O)n1-c1ccc(Cl)cc1 | 127
Cc1nc2c(cnn2C2CCCCCC2)c(=O)n1-c1ccc(Cl)cc1 | 520
Cc1cccc(-n2ncc3c(=O)n(-c4ccc(Cl)cc4)c(C)nc32)c1 | 180
Cc1nc2c(cnn2-c2ccccc2)c(=O)n1-c1ccc(Cl)cc1 | 242
Cc1nc2c(cnn2-c2cccnc2)c(=O)n1-c1ccc(Cl)cc1 | 230

Go through the items and report each one's IC50.
1. Cc1nc2c(cnn2-c2ccccc2)c(=O)n1N1CCCCC1
2. Cc1nc2c(cnn2-c2ccccc2)c(=O)n1-c1ccc(Br)cc1

[out]
[91, 78]

----------
# protocol-description: AUC in Sprague-Dawley rat at 1 mg/kg, iv
# Type: ADME, organism-based
# Design: dose 1 mg/kg, route intravenous
# recorded-conditions: plasma
measurement-kind: AUC (ng·h/mL)
Give bare numbers, in ng·h/mL.

smi | AUC / ng·h/mL
Cc1nc2c(cnn2-c2cccc(S(N)(=O)=O)c2)c(=O)n1-c1ccc(Cl)cc1 | 6150

Now for a further molecule.
Value of AUC reported for the molecule Cc1nc2c(cnn2-c2ccccc2)c(=O)n1-c1ccc(Br)cc1 is 1280

----------
# Tested on: Rattus norvegicus
# protocol-description: Clearance in Sprague-Dawley rat at 1 mg/kg, iv
# Format: ADME, organism-based
# Design: dose 1 mg/kg, route intravenous
# recorded-conditions: in vivo
measurement-kind: clearance (mL/min/kg)
Answers are plain numbers, in mL/min/kg.

smi | clearance / mL/min/kg
Cc1nc2c(cnn2-c2ccccc2)c(=O)n1-c1ccc(Br)cc1 | 13.3

Attention now shifts to the item below.
Entry Cc1nc2c(cnn2-c2cccc(S(N)(=O)=O)c2)c(=O)n1-c1ccc(Cl)cc1 , Rattus norvegicus data, clearance value: 3.33

----------
# protocol-description: Tmax in Sprague-Dawley rat at 1 mg/kg, ip
# Type: ADME, organism-based
# Parameters: dose 1 mg/kg, route intraperitoneal
# recorded-conditions: Sprague-Dawley, in vivo
measurement-kind: Tmax
# output: numeric value plus its unit

Looking up Cc1nc2c(cnn2-c2cccc(S(N)(=O)=O)c2)c(=O)n1-c1ccc(Cl)cc1 , I see its Tmax listed as 1.7 h

----------
# protocol-description: Cmax in Sprague-Dawley rat at 1 mg/kg, ip
# Format: ADME, organism-based
# Design: dose 1 mg/kg, route intraperitoneal
# recorded-conditions: Sprague-Dawley, in vivo
measurement-kind: Cmax (ng/mL)
Answers are plain numbers, in ng/mL.

Short answer for Cc1nc2c(cnn2-c2cccc(S(N)(=O)=O)c2)c(=O)n1-c1ccc(Cl)cc1 : Cmax was 1540

----------
# target-or-system: Metabotropic glutamate receptor 5 (Homo sapiens, UniProt P41594)
# Sequence (P41594 whole entry): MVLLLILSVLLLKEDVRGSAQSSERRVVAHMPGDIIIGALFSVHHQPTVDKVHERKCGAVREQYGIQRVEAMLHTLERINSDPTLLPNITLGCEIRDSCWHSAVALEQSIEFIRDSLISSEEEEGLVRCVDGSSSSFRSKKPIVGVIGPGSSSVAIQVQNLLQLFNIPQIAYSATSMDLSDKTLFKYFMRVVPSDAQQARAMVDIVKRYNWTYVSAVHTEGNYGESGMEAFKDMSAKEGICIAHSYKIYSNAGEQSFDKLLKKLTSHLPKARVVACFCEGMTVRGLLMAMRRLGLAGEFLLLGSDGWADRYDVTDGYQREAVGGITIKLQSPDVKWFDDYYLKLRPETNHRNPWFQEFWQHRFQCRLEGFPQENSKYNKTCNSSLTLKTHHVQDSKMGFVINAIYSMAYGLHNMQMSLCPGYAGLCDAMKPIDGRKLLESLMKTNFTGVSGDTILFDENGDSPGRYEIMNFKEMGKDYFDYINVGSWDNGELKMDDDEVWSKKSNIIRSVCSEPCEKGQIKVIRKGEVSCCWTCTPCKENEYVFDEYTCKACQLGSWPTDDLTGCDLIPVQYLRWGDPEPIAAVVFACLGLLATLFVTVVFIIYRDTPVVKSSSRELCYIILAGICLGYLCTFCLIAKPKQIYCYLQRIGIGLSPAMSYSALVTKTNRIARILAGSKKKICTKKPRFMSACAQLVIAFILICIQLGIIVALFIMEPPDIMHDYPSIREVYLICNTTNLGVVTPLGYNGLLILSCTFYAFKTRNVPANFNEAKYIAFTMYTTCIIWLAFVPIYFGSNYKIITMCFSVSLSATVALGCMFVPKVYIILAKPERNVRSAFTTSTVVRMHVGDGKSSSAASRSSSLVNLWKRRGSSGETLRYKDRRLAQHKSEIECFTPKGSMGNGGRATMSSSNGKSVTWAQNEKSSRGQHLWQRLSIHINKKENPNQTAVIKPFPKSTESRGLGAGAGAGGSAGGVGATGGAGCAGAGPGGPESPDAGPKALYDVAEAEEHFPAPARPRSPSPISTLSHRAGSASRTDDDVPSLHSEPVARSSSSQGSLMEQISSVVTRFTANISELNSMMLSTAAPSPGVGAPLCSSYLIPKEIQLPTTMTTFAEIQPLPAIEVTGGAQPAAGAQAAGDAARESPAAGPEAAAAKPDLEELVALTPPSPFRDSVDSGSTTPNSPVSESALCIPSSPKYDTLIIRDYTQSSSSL
# protocol-description: Antagonist activity at human mGluR5 receptor expressed in […] cells assessed as inhibition of glutamate-induced calcium flux by FLIPR assay
measurement-kind: IC50

smi | target-or-system | IC50
Cc1nc2c(cnn2-c2ccccc2)c(=O)n1-c1ccc(Cl)cc1 | Metabotropic glutamate receptor 5 (Homo sapiens, UniProt P41594) | 9.6 µM
Cc1cccc(-n2ncc3c(=O)n(-c4ccc(Cl)cc4)c(C)nc32)c1 | Metabotropic glutamate receptor 5 (Homo sapiens, UniProt P41594) | > 100 µM
Cc1ccccc1-n1ncc2c(=O)n(-c3ccc(Cl)cc3)c(C)nc21 | Metabotropic glutamate receptor 5 (Homo sapiens, UniProt P41594) | 9.5 µM
Cc1nc2c(cnn2-c2cccc(S(N)(=O)=O)c2)c(=O)n1-c1ccc(Cl)cc1 | Metabotropic glutamate receptor 5 (Homo sapiens, UniProt P41594) | > 100 µM
Cc1nc2c(cnn2-c2ccccn2)c(=O)n1-c1ccc(Cl)cc1 | Metabotropic glutamate receptor 5 (Homo sapiens, UniProt P41594) | > 100 µM
Cc1nc2c(cnn2-c2ccccc2)c(=O)n1-c1ccc(Cl)c(F)c1 | Metabotropic glutamate receptor 5 (Homo sapiens, UniProt P41594) | > 100 µM

List reported IC50 for each of these compounds:
1. Cc1nc2c(cnn2-c2ccccc2)c(=O)n1N1CCCCC1
2. Cc1nc2c(cnn2-c2ccccc2)c(=O)n1N1CCCCCC1
3. Cc1nc2c(cnn2-c2cncnc2)c(=O)n1-c1ccc(Cl)cc1
4. Cc1nc2c(cnn2-c2ccc(S(N)(=O)=O)cc2)c(=O)n1-c1ccc(Cl)cc1

[out]
["2.8 µM", "3.6 µM", "> 100 µM", "> 100 µM"]

Sure, the documented IC50 for Cc1nc2c(cnn2-c2ccccc2)c(=O)n1-c1ccc(S(N)(=O)=O)cc1 is > 100 µM

----------
# target-or-system: Metabotropic glutamate receptor 1 (Homo sapiens)
# protocol-description: Antagonist activity at human mGluR1 receptor expressed in […] cells assessed as inhibition of glutamate-induced calcium flux by FLIPR assay
# Type: functional, cell-based
pIC50: −log10 of the molar value.
measurement-kind: pIC50

Some molecules with known pIC50 results, for comparison:
smi | experimental-result
Cc1nc2c(cnn2-c2ccccc2)c(=O)n1-c1ccc(OC(F)(F)F)cc1 | < 4.00
Cc1nc2c(cnn2CC2CCCCC2)c(=O)n1-c1ccc(Cl)cc1 | < 4.00

Entry Cc1nc2c(cnn2-c2ccccn2)c(=O)n1-c1ccc(Cl)cc1 , pIC50 reported as < 4.00
